Task for the reader: assign each of the following compounds its reported viability.
# Test system: A549
# Measurement notes: Toxicity in human A549 cells assessed as cell viability at 15.6 ug/ml incubated for 24 hrs by resazurin dye based assay
# Setup conditions: a549, 24 h

// recorded viability for CCCC(O)(Cn1cncn1)c1ccc(Cl)cc1Cl (stereo not given) : > 85%

// recorded viability for CCCCCCC(O)(Cn1cncn1)c1ccc(Cl)cc1Cl (stereo not given) : > 85%

// recorded viability for C[C@@H]1[C@H](O)[C@@H](C)/C=C/C=C/C=C/C=C/C=C/C=C/C=C/[C@H](O[C@@H]2O[C@H](C)[C@@H](O)[C@H](N)[C@@H]2O)C[C@@H]2O[C@](O)(C[C@@H](O)C[C@@H](O)[C@H](O)CC[C@@H](O)C[C@@H](O)CC(=O)O[C@H]1C)C[C@H](O)[C@H]2C(=O)O : 30%

// recorded viability for CCCCC(O)(Cn1cncn1)c1ccc(Cl)cc1Cl (stereo not given) : > 85%

// recorded viability for CCCCCC(O)(Cn1cncn1)c1ccc(Cl)cc1Cl (stereo not given) : > 85%
